Target: human C5a receptor (CD88) (Homo sapiens, UniProt P21730)
Construct: expressed in transfected cells; host or cells: rat basophilic leukemia (RBL) cells, stably transfected
Sequence (P21730 whole entry): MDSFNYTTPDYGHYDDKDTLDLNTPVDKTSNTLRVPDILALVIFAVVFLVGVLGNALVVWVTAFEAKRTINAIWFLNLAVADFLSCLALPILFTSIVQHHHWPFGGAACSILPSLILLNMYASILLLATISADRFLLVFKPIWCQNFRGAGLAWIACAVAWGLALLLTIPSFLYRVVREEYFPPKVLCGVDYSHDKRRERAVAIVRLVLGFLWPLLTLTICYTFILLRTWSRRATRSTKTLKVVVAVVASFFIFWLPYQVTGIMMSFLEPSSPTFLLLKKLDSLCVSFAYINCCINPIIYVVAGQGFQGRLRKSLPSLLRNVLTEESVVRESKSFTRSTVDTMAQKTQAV
Experiment: C5a induced enzyme (glucosaminidase) release assay in RBL cells expressing the human C5a receptor (Example 28)
Format: cell-based
Settings: IC50 for the inhibition of C5a induced enzyme release, RBL cells with human C5aR
pIC50: −log10 of the molar value.
OBSERVED PROPERTY: pIC50

[[record]]
molecule = "COc1ccc2c(c1)C(C(=O)N(Cc1ccc(N(C)C)cc1)c1ccc(C(C)C)cc1)CCC2 (stereo not shown) [compound 12, reference compound]"
observed_property = "pIC50"
val = 7.05

